Please go through the items and note down their ID/g.
- Tested on: Rattus norvegicus
- experimental_details: Biodistribution in spleen of immature female rat after 3 hour administration of 3 micro Ci (111 kBq) in the absence of 60 microg estradiol
- Type: ADME, organism-based
- recorded_conditions: in vivo
The reply should contain only the number, in %.

Lookup: Dear colleague, I am looking for the recorded ID/g of the following compound: `C[C@@H]1Cc2c(ccc(O)c2F)[C@H]2CC[C@@]3(C)[C@@H](CC[C@@]3(O)/C=C/I)[C@H]12`
Found: 0.91

Lookup: Dear colleague, I am looking for the recorded ID/g of the following compound: `C[C@]12CC[C@@H]3c4cc(F)c(O)cc4CC[C@H]3[C@@H]1CC[C@@]2(O)/C=C\I`
Found: 0.29

Lookup: Dear colleague, I am looking for the recorded ID/g of the following compound: `C[C@]12CC[C@@H]3c4ccc(O)c(F)c4CC[C@H]3[C@@H]1CC[C@@]2(O)/C=C/I`
Found: 0.36

Lookup: Dear colleague, I am looking for the recorded ID/g of the following compound: `C[C@]12CC[C@@H]3c4cc(F)c(O)cc4CC[C@H]3[C@@H]1CC[C@@]2(O)/C=C/I`
Found: 0.32

* * *

- Tested on: Rattus norvegicus
- experimental_details: Biodistribution in uterus / spleen, muscle, lungs of immature female rat after 1 hr administration of 3 micro Ci (111 kBq) in the absence of 60 microg estradiol
- Format: ADME, organism-based
- recorded_conditions: in vivo
quantity: uterus-to-nontarget tissue uptake ratio

Lookup: Dear colleague, I am looking for the recorded uterus-to-nontarget tissue uptake ratio of the following compound: `C[C@@H]1Cc2cc(O)c(F)cc2[C@H]2CC[C@@]3(C)[C@@H](CC[C@@]3(O)/C=C/I)[C@H]12`
Found: 3.3%

Lookup: Dear colleague, I am looking for the recorded uterus-to-nontarget tissue uptake ratio of the following compound: `C[C@]12CC[C@@H]3c4ccc(O)c(F)c4CC[C@H]3[C@@H]1CC[C@@]2(O)/C=C\I`
Found: 8.31%

Lookup: Dear colleague, I am looking for the recorded uterus-to-nontarget tissue uptake ratio of the following compound: `C[C@@H]1Cc2cc(O)c(F)cc2[C@H]2CC[C@@]3(C)[C@@H](CC[C@@]3(O)/C=C\I)[C@H]12`
Found: 5.13%

Lookup: Dear colleague, I am looking for the recorded uterus-to-nontarget tissue uptake ratio of the following compound: `C[C@]12CC[C@@H]3c4cc(F)c(O)cc4CC[C@H]3[C@@H]1CC[C@@]2(O)/C=C\I`
Found: 7.32%

Lookup: Dear colleague, I am looking for the recorded uterus-to-nontarget tissue uptake ratio of the following compound: `C[C@]12CC[C@@H]3c4ccc(O)c(F)c4CC[C@H]3[C@@H]1CC[C@@]2(O)/C=C/I`
Found: 6.39%

Lookup: Dear colleague, I am looking for the recorded uterus-to-nontarget tissue uptake ratio of the following compound: `CO[C@H]1C[C@@]2(C)[C@@H](CC[C@@]2(O)/C=C/I)[C@@H]2CCc3cc(O)c(F)cc3[C@H]21`
Found: 4.78%

Lookup: Dear colleague, I am looking for the recorded uterus-to-nontarget tissue uptake ratio of the following compound: `C[C@@H]1Cc2c(ccc(O)c2F)[C@H]2CC[C@@]3(C)[C@@H](CC[C@@]3(O)/C=C/I)[C@H]12`
Found: 5.03%

Lookup: Dear colleague, I am looking for the recorded uterus-to-nontarget tissue uptake ratio of the following compound: `CO[C@H]1C[C@@]2(C)[C@@H](CC[C@@]2(O)/C=C\I)[C@@H]2CCc3c(ccc(O)c3F)[C@H]21`
Found: 7.3%

* * *

- Tested on: Rattus norvegicus
- experimental_details: Biodistribution in fat of immature female rat after 5 hour administration of 3 micro Ci (111 kBq) in the absence of 60 microg estradiol
- Assay type: ADME, organism-based, Adipose tissue
- recorded_conditions: in vivo
Returns: string. Value is True if measured ID/g is below 2%, and False if it is greater than or equal to it.

Lookup: Criterion: ID/g strictly below 2%. Is it met by `C[C@@H]1Cc2cc(O)c(F)cc2[C@H]2CC[C@@]3(C)[C@@H](CC[C@@]3(O)/C=C\I)[C@H]12` ?
Found: False

Lookup: Criterion: ID/g strictly below 2%. Is it met by `C[C@]12CC[C@@H]3c4cc(F)c(O)cc4CC[C@H]3[C@@H]1CC[C@@]2(O)/C=C/I` ?
Found: False

Lookup: Criterion: ID/g strictly below 2%. Is it met by `CO[C@H]1C[C@@]2(C)[C@@H](CC[C@@]2(O)/C=C\I)[C@@H]2CCc3c(ccc(O)c3F)[C@H]21` ?
Found: True

Lookup: Criterion: ID/g strictly below 2%. Is it met by `C[C@]12CC[C@@H]3c4cc(F)c(O)cc4CC[C@H]3[C@@H]1CC[C@@]2(O)/C=C\I` ?
Found: True

Lookup: Criterion: ID/g strictly below 2%. Is it met by `C[C@@H]1Cc2cc(O)c(F)cc2[C@H]2CC[C@@]3(C)[C@@H](CC[C@@]3(O)/C=C/I)[C@H]12` ?
Found: True

Lookup: Criterion: ID/g strictly below 2%. Is it met by `C[C@@H]1Cc2c(ccc(O)c2F)[C@H]2CC[C@@]3(C)[C@@H](CC[C@@]3(O)/C=C\I)[C@H]12` ?
Found: True

Lookup: Criterion: ID/g strictly below 2%. Is it met by `C[C@]12CC[C@@H]3c4ccc(O)c(F)c4CC[C@H]3[C@@H]1CC[C@@]2(O)/C=C\I` ?
Found: True

* * *

- Tested on: Rattus norvegicus
- experimental_details: Biodistribution in uterus of immature female rat after 1 hr administration of 3 micro Ci (111 kBq) in the absence of 60 microg estradiol
- Assay type: ADME, organism-based
- recorded_conditions: in vivo
Please go through the items and note down their ID/g.
The reply should contain only the number, in %.

Lookup: Dear colleague, I am looking for the recorded ID/g of the following compound: `C[C@]12CC[C@@H]3c4cc(F)c(O)cc4CC[C@H]3[C@@H]1CC[C@@]2(O)/C=C\I`
Found: 4.41

Lookup: Dear colleague, I am looking for the recorded ID/g of the following compound: `C[C@@H]1Cc2cc(O)c(F)cc2[C@H]2CC[C@@]3(C)[C@@H](CC[C@@]3(O)/C=C\I)[C@H]12`
Found: 3.76

Lookup: Dear colleague, I am looking for the recorded ID/g of the following compound: `CO[C@H]1C[C@@]2(C)[C@@H](CC[C@@]2(O)/C=C\I)[C@@H]2CCc3c(ccc(O)c3F)[C@H]21`
Found: 6.87

* * *

- Tested on: Rattus norvegicus
- experimental_details: Biodistribution in thyroid of immature female rat after 3 hour administration of 3 micro Ci (111 kBq) in the absence of 60 microg estradiol
- Type: ADME, organism-based, Thyroid gland
- recorded_conditions: in vivo
quantity: ID/g

Lookup: Dear colleague, I am looking for the recorded ID/g of the following compound: `C[C@@H]1Cc2c(ccc(O)c2F)[C@H]2CC[C@@]3(C)[C@@H](CC[C@@]3(O)/C=C\I)[C@H]12`
Found: 304%

Lookup: Dear colleague, I am looking for the recorded ID/g of the following compound: `C[C@]12CC[C@@H]3c4cc(F)c(O)cc4CC[C@H]3[C@@H]1CC[C@@]2(O)/C=C/I`
Found: 39.1%

Lookup: Dear colleague, I am looking for the recorded ID/g of the following compound: `C[C@]12CC[C@@H]3c4ccc(O)c(F)c4CC[C@H]3[C@@H]1CC[C@@]2(O)/C=C/I`
Found: 128%

* * *

Please go through the items and note down their Uterus-to-blood radioactivity ratio (dimensionless).
- Test system: Rattus norvegicus
- experimental_details: Biodistribution in uterus / blood of immature female rat after 12 hour administration of 3 micro Ci (111 kBq) in the absence of 60 microg estradiol
- Assay type: ADME, organism-based
- recorded_conditions: in vivo

Lookup: Dear colleague, I am looking for the recorded Uterus-to-blood radioactivity ratio (dimensionless) of the following compound: `C[C@@H]1Cc2c(ccc(O)c2F)[C@H]2CC[C@@]3(C)[C@@H](CC[C@@]3(O)/C=C/I)[C@H]12`
Found: 17.87%

Lookup: Dear colleague, I am looking for the recorded Uterus-to-blood radioactivity ratio (dimensionless) of the following compound: `CO[C@H]1C[C@@]2(C)[C@@H](CC[C@@]2(O)/C=C/I)[C@@H]2CCc3cc(O)c(F)cc3[C@H]21`
Found: 10.45%

Lookup: Dear colleague, I am looking for the recorded Uterus-to-blood radioactivity ratio (dimensionless) of the following compound: `C[C@@H]1Cc2cc(O)c(F)cc2[C@H]2CC[C@@]3(C)[C@@H](CC[C@@]3(O)/C=C\I)[C@H]12`
Found: 18.13%

Lookup: Dear colleague, I am looking for the recorded Uterus-to-blood radioactivity ratio (dimensionless) of the following compound: `C[C@@H]1Cc2cc(O)c(F)cc2[C@H]2CC[C@@]3(C)[C@@H](CC[C@@]3(O)/C=C/I)[C@H]12`
Found: 2.99%

Lookup: Dear colleague, I am looking for the recorded Uterus-to-blood radioactivity ratio (dimensionless) of the following compound: `C[C@@H]1Cc2c(ccc(O)c2F)[C@H]2CC[C@@]3(C)[C@@H](CC[C@@]3(O)/C=C\I)[C@H]12`
Found: 16.64%

Lookup: Dear colleague, I am looking for the recorded Uterus-to-blood radioactivity ratio (dimensionless) of the following compound: `C[C@]12CC[C@@H]3c4cc(F)c(O)cc4CC[C@H]3[C@@H]1CC[C@@]2(O)/C=C\I`
Found: 15.69%

Lookup: Dear colleague, I am looking for the recorded Uterus-to-blood radioactivity ratio (dimensionless) of the following compound: `C[C@]12CC[C@@H]3c4ccc(O)c(F)c4CC[C@H]3[C@@H]1CC[C@@]2(O)/C=C/I`
Found: 2.76%

Lookup: Dear colleague, I am looking for the recorded Uterus-to-blood radioactivity ratio (dimensionless) of the following compound: `C[C@]12CC[C@@H]3c4ccc(O)c(F)c4CC[C@H]3[C@@H]1CC[C@@]2(O)/C=C\I`
Found: 27.32%

Lookup: Dear colleague, I am looking for the recorded Uterus-to-blood radioactivity ratio (dimensionless) of the following compound: `CO[C@H]1C[C@@]2(C)[C@@H](CC[C@@]2(O)/C=C\I)[C@@H]2CCc3c(ccc(O)c3F)[C@H]21`
Found: 34.58%
